Tested on: P388
test_method_notes: Growth inhibition of murine P388 cells after 48 hrs
Format: functional
measurement_parameters: Mus musculus, P388, 48 h; read-out: ED50 (the source's name)
Recorded EC50 by entry

structure_notation	target_entity	censoring_qualifier	EC50 [µg/mL]
O=C1N[C@H]2[C@H](O)[C@H](O)[C@@H](O)[C@H](O)[C@@H]2c2cc3c(c(O)c21)OCO3	P388	=	0.017
COC(=O)C(=O)Oc1c2c(cc3c1C(=O)N(C(=O)C(=O)OC)[C@H]1[C@H](OC(C)=O)[C@H](OC(C)=O)[C@@H](OC(C)=O)[C@H](OC(C)=O)[C@@]31OC(=O)C(=O)OC)OCO2	P388	>	10
CC(=O)Oc1c2c(cc3c1C(=O)N[C@@H]1C3=C[C@H](OC(C)=O)[C@@H](OC(C)=O)[C@H]1OC(C)=O)OCO2	P388	=	0.027
CC(=O)O[C@H]1[C@@H](OC(C)=O)[C@@H]2NC(=O)c3c(cc4c(c3O)OCO4)[C@@]23OC(=S)O[C@H]3[C@@H]1OC(C)=O	P388	>	1
CC(=O)Oc1c2c(cc3c1C(=O)N[C@H]1[C@H](OC(C)=O)[C@H](OC(C)=O)[C@@H](OC(C)=O)[C@H](O)[C@@]31O)OCO2	P388	=	1.7
O=C1N[C@H]2[C@H](O)[C@H](O)[C@@H](O)[C@H](O)[C@H]2c2cc3c(c(O)c21)OCO3	P388	=	0.14
